Test: protein stability index of a GFP-peptide fusion (yeast GPS) (PSI 1-4); higher = more stable; sorted into four equal gates, so the index is relative within each strain
Conditions: san1∆
Quick rule: protein stability index of at least 3 means label 1, below that means label 0.

primarySequence	class
DEIHIPAPSKPVIDYEL [BRR2]	label 0
NSPSSALRALQENGTIF [YDL088C/ASM4]	label 0
LQLETPAEVGRAIRSEK [BRR2]	label 0

Exercise: Exam item: decide whether the reported protein stability index for VEAIRRSNQYQRGKMHG [NUT2] is at least 3.
Key: label 0

Exercise: Is reported protein stability index greater than or equal to 3 here: DKLLDPTTVSYIFCISR [SCL1]
Key: label 1

Exercise: Identify whether the reported protein stability index of the following sequence is 3 or greater: VVGRTTRSNPPFKRKML [REC8]
Key: label 0

Exercise: Check the entry PLPAVFSAPIRPDIVHT [RPL4A] : does protein stability index equal or exceed 3?
Key: label 0

====

Assay: protein stability index of a GFP-peptide fusion (yeast GPS) (PSI 1-4); higher = more stable; sorted into four equal gates, so the index is relative within each strain
Conditions: ubr1∆
Classify as follows. Reported protein stability index greater than or equal to 3: y. Reported protein stability index below: n.

primarySequence	class
DGFNKTFHDELNLKFKE [YML103C/NUP188]	n

Exercise: Say whether TIGPYRARKDRMRVSVL [SSN3] shows protein stability index of 3 or more.
Key: y

Exercise: In plain terms: is recorded protein stability index at least 3 for EVSCKLLETITYVLNTW [YML103C/NUP188] ?
Key: n

Exercise: Evaluate LKLDKIIHVLTTMFENT [RGR1] : protein stability index at minimum 3?
Key: n

Exercise: Form field: protein stability index at least 3? Entry: QQYVAAGDLRALDTVTN [FAS1]
Key: n

Exercise: Does SKQDASPKPYAVKYGLN [RPL8A] have a reported protein stability index of at least 3?
Key: y

Exercise: Determine whether this sequence has protein stability index no lower than 3: NNTKAGRRKTWKRQNTL [RPL15A]
Key: n

====

Consider the following sequences and their measured protein stability index readings.
Assay: protein stability index of a GFP-peptide fusion (yeast GPS) (PSI 1-4); higher = more stable; sorted into four equal gates, so the index is relative within each strain
Details: ubr1∆
# output: bare number, no unit

These solved cases illustrate the format of a correct answer.
primarySequence	recordedMeasurement
GALKGASDGGLYVPHSE [RPL5]	2.67
EPIYGVQYKLLSISVPS [SNU114]	3.09
IKTFYWLEQFLSCVKND [NUT1]	1.13
FAVALKNEPDYSKAKYP [CDC53]	2.34

Exercise: Provide only the value of recorded protein stability index for KEKKELQMRLKESEISH [YIL149C/MLP2]
Key: 3.04

Exercise: For the sequence NIKFLSKLEGTINKAVQ [ESC2] , give its measured protein stability index value.
Key: 2.91

Exercise: Look up protein stability index of GKIQENIPFWKHVGFEL [SRP72] and report it.
Key: 2.57

Exercise: Hello, please tell me recorded protein stability index for this one: LPYAIAGSGSTFIYGYC [PRE3]
Key: 2.29

Exercise: Tell me its protein stability index given RRSKMNPLWNAIIVAGV [PRE4] as the entry.
Key: 2.93

Exercise: Tell me protein stability index reported for YARADTHFLLNIYDQLR [RRP6]
Key: 2.58

Exercise: Specify measured protein stability index for FKYLLGVTDLFRHFIGI [ISW2] .
Key: 1.3

Exercise: Annotate the sequence STKSNKAKNPLTHSTPK [RPL8B] with its measured protein stability index.
Key: 2.73

Exercise: In one line, give reported protein stability index of the entry GPSSVHNAKNGTLDKNS [SNF2] .
Key: 2.74

Exercise: Answer with the recorded protein stability index for the sequence listed here: ERFTKSKTLSLIQSYSL [FAS1]
Key: 2.06

Exercise: Give reported protein stability index value for PDGTLIASAGKDGEIML [ASC1]
Key: 2.8

Exercise: Write down protein stability index measured for item SQSACREMALCRELHNK [SSN3]
Key: 2.8

Exercise: State its protein stability index for this sequence: CLNCEKSKLFEWKSEFV [SNM1]
Key: 2.7

Exercise: Give the value of protein stability index reported for the following: GAASNRTKFVRSLVREI [RPL36A]
Key: 3.25

Exercise: Hello, please tell me recorded protein stability index for this one: LTYDKDLTNNPQDDDSQ [MTR3]
Key: 3.1

Exercise: Return value of protein stability index for input GQQSVEGKRIAFGFVDR [RPO21] , no commentary.
Key: 3.52

Exercise: Supply protein stability index value. Item: ILNFLNQEDLFELVHHF [YML103C/NUP188]
Key: 2.16

Exercise: # return recorded protein stability index for input ISDDDDSALRYSILGDR [POP4]
Key: 2.72

Exercise: Query protein stability index for GGSSDTADKIRIHAKNF [GAL11]
Key: 1.68

Exercise: Complete the entry with protein stability index for LQDDEDHKFPIRENKVT [BRN1]
Key: 2.38

Exercise: # return recorded protein stability index for input PFFSSNTSSLQSFQNPF [YIL149C/MLP2]
Key: 2.81

Exercise: Look up and state reported protein stability index for MTIDDSNRLLMDVDQFD [YJR042W/NUP85]
Key: 3.51

Exercise: Please report protein stability index for the following sequence: HDEKTLAPSKHQPITSE [SIR4]
Key: 2.27
